Target Under Test: cGAS (Homo sapiens)
Construct: made in house; host or cells: E. coli Rosetta BL21 pLysS
Sequence (Q8N884 whole entry, species assumed): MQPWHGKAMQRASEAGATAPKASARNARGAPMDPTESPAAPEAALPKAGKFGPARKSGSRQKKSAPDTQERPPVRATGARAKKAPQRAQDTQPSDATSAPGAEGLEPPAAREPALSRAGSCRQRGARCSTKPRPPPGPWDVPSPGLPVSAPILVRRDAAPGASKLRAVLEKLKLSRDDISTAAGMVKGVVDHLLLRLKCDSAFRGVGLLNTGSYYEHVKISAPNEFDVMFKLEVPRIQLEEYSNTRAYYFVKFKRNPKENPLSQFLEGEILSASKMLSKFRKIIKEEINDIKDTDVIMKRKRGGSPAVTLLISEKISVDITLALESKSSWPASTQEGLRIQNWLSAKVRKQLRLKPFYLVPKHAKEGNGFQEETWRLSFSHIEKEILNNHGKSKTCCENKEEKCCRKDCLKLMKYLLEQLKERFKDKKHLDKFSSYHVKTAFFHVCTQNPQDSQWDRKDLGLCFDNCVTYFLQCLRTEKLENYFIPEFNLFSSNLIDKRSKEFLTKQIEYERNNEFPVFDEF
Test Name: cGAS activity assay: cGAMP production quantified by TLC (IC50 Enzyme Assay)
Assay type: biochemical
Reported Conditions: cGAS, fixed 100 μg/mL herring testes DNA, TLC of cGAMP; read-out: IC50 Enzyme Assay
pIC50: −log10 of the molar value.
Readout Kind: pIC50

Example entries and their recorded answers appear below.
[
  {
    "Compound": "CCN(CCO)CCCC(C)Nc1ccnc2cc(Cl)ccc12 (stereo not shown) [compound 1, hydroxychloroquine]",
    "Target Under Test": "cGAS (Homo sapiens)",
    "Quantitative Result": 3.46
  },
  {
    "Compound": "COc1ccc2nc3cc(N)ccc3c(N(C)CCCN(C)Cc3ccncc3)c2c1",
    "Target Under Test": "cGAS (Homo sapiens)",
    "Quantitative Result": 4.64
  },
  {
    "Compound": "CCN(CC)CCCC(C)Nc1ccnc2cc(Cl)ccc12 (stereo not shown)",
    "Target Under Test": "cGAS (Homo sapiens)",
    "Quantitative Result": 3.07
  }
]

a: CN(C)c1ccc2cc3ccc(N(C)C)cc3nc2c1
b: COc1ccc2nc3cc(N)ccc3c(N(C)CCCN(C)Cc3ccco3)c2c1
[Q] Please let me know which one, a or b , has a lower measured pIC50 value. Your choice should be expressed through its label.
[A] b

* * *

Tested on: 3 cell lines
Test Name: Toxicity, average of 3 cell lines @ 50% cell death
Assay type: cell-based
Readout Kind: Toxicity (µM)
Return type: number; implicit unit µM.

[
  {
    "Compound": "CCN(CC)CCCC(C)Nc1c2ccc(Cl)cc2nc2ccc(OC)cc12 (stereo not shown)",
    "Measure Unit": "µM",
    "Quantitative Result": 33.0
  }
]

Per the record, NCCCCNc1c2ccccc2nc2ccccc12 has Toxicity of 16.0

Reported Toxicity of COc1ccc2nc3cc(N)ccc3c(N(C)CCCN(C)Cc3ccncc3)c2c1 : 27.4

Noted for COc1ccc2nc3cc(N)ccc3c(N(C)CCCN(C)Cc3ccccc3)c2c1 : its Toxicity reads 33.1

* * *

Target Under Test: cGAS (Homo sapiens)
Construct: made in house; host or cells: E. coli Rosetta BL21 pLysS
Test Name: cGAS activity assay: cGAMP production quantified by TLC (IC50 Enzyme Assay)
Assay type: biochemical
Readout Kind: IC50 (µM)
Reply with just the number (in µM).

Looking up COc1ccc2nc3cc(Cl)ccc3c(N)c2c1 , I found its IC50 recorded as 32

* * *

Target Under Test: cGAS (Homo sapiens)
Construct: made in house; host or cells: E. coli Rosetta BL21 pLysS
Test Name: cGAS activity assay: cGAMP production quantified by TLC (IC50 Enzyme Assay)
Type: biochemical
Reported Conditions: cGAS, fixed 100 μg/mL herring testes DNA, TLC of cGAMP; read-out: IC50 Enzyme Assay
pIC50: −log10 of the molar value.
Readout Kind: pIC50

Reference set, count: 3
[
  {
    "Molecule": "CCOc1ccc2nc3cc(N)ccc3c(N)c2c1",
    "Quantitative Result": 5.00
  },
  {
    "Molecule": "COc1cc(NC(C)CCCN)c2ncccc2c1 (stereo not drawn)",
    "Quantitative Result": 3.07
  },
  {
    "Molecule": "CCN(CC)CCCC(C)Nc1c2ccc(Cl)cc2nc2ccc(OC)cc12 (stereo not drawn)",
    "Quantitative Result": 4.89
  }
]

1: COc1ccc2nc3cc(N)ccc3c(N(C)CCCN(C)Cc3ccccc3)c2c1
2: C=C[C@H]1CN2CC[C@H]1C[C@H]2[C@H](O)c1ccnc2ccc(OC)cc12
3: Nc1c2ccccc2nc2ccccc12
4: NCCCCNc1c2ccccc2nc2ccccc12
[Q] List by increasing pIC50. To answer, arrange all of the labels according to the requested order.
[A] 2, 1, 3, 4
